assay: Pharmacokinetic determination in rats (IV and PO); assay type: in vivo, Sprague Dawley rats; conditions: Sprague Dawley; rat, IV, single administration, plasma
measuredParameter: AUC(0-inf)

>>> print(df.to_string())
                                   compound  measuredparameter     testvalue
0  O=C1COC(c2cn(-c3ccc(Br)cc3)nc2-c2ccc(F)cc2)N1CCc1ccc2[nH]c(=O)[nH]c2c1 (racemic) [example 3 racemate]         AUC(0-inf)  3880 ng·h/mL

====

assay: Pharmacokinetic determination in rats (IV and PO); assay type: in vivo, Sprague Dawley rats; settings: Sprague Dawley; rat, PO, single administration, plasma
measuredParameter: half-life

                                   compound  measuredparameter  testvalue
0  O=C1COC(c2cn(-c3ccc(Br)cc3)nc2-c2ccc(F)cc2)N1CCc1ccc2[nH]c(=O)[nH]c2c1 (racemic) [example 3 racemate]          half-life    124 min
